tested.on: full-length HA from isolate A/Vietnam/1194/2004 (H5N1TV) on PER.C6 cells (influenza A virus A/Vietnam/1194/2004 …, UniProt Q80A26 6-554)
method.summary: flow cytometry, transfected PER.C6 cells
Parameter flow cytometry signal at 0.1 µg/ml: see the listing below.

{"binder": "CR6255 (antibody, V domains shown) VH: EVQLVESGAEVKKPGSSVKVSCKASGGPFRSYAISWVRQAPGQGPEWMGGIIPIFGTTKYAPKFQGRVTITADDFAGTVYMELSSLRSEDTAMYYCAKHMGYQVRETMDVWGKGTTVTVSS VL: SYVLTQPPSASGTPGQRVTISCSGSTFNIGSNAVDWYRQLPGTAPKLLIYSNNQRPSGVPDRFSGSRSGTSASLAISGLQSEDEADYYCAAWDDILNVPVFGGGTKLTVLG", "flow cytometry signal at 0.1 µg/ml": 60.4}
{"binder": "CR6268 (antibody, V domains shown) VH: QVQLVQSGAEVKKPGSSVKVSCKASGGTFSSYAISWVRQAPGQGLEWMGGIMGMFGTTNYAQKFQGRVTITADEFTSAAYMELRSLRSEDTAVYYCARSSGYYPEYFQDWGQGTLVTVSS VL: QSVLTQPPSESVSPGQTASVTCSGHKLGDKYVSWYQQKPGQSPVLLIYQDNRRPSGIPERFIGSNSGNTATLTISGTQALDEADYYCQAWDSSTAVFGGGTKLTVLG", "flow cytometry signal at 0.1 µg/ml": 43.7}
{"binder": "CR6260 (antibody, V domains shown) VH: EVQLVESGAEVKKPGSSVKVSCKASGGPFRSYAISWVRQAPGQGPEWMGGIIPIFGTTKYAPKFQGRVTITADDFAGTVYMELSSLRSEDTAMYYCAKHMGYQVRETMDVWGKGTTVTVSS VL: SYVLTQPPSVSGTPGQRVTISCSGSRSNVGDNSVYWYQHVPEMAPKLLVYKNTQRPSGVPARFSGSKSGTSASLAIIGLQSGDEADYYCVAWDDSVDGYVFGSGTKVTVLG", "flow cytometry signal at 0.1 µg/ml": 31.1}
